molecules and their reported IC50
Target: K-Ras G13C (Homo sapiens (Human), UniProt P01116+P62937, G13C)
Sequence (P01116-2 other isoform, or with tags, fused parts or gaps G13C, one chain of several): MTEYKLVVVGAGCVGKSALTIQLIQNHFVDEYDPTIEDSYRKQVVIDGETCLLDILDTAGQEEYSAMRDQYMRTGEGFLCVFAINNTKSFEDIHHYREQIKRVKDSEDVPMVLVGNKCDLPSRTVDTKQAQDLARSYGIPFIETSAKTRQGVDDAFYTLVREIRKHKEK
Test: Ras-Raf (BRAF RBD) disruption / FRET / MOA assay, KRAS G13C
Assay type: biochemical
Conditions: KRAS G13C; Ras-Raf disruption/FRET/MOA assay; read-out: IC50* KRAS G13C FRET data

INSERT INTO measurements (molecule, assayed_target, reported_measurement) VALUES
  ('CCn1c(-c2cccnc2[C@H](C)OC)c2c3cc(ccc31)-c1cccc(c1)C[C@H](NC(=O)[C@H](C(C)C)N1CC[C@]3(CCN(C(=O)C#C[C@@H]4COCCN4C)C3)C1=O)C(=O)N1CCC[C@H](N1)C(=O)OCC(C)(C)C2 (atropisomer, axis not shown)', 'K-Ras G13C (Homo sapiens (Human), UniProt P01116+P62937, G13C)', '1 to 10 µM');

Prompt: For C=CC(=O)N1CC(OCC(C(=O)N[C@H]2Cc3cccc(c3)-c3ccc4c(c3)c(c(-c3cccnc3[C@H](C)OC)n4CC(F)(F)F)CC(C)(C)COC(=O)[C@@H]3CCCN(N3)C2=O)C(C)C)C1 (mixture of isomers) , what is its reported IC50?
Response: > 10 µM

====

Target: KRAS G12D (Homo sapiens (Human), UniProt P01116+P62937, G12D)
Sequence (P01116-2 other isoform, or with tags, fused parts or gaps G12D): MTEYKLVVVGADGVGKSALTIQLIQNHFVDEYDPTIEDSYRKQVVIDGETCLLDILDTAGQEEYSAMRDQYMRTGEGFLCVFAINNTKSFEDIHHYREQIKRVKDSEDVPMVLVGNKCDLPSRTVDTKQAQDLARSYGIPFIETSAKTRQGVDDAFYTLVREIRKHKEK
Sequence (P62937 whole entry): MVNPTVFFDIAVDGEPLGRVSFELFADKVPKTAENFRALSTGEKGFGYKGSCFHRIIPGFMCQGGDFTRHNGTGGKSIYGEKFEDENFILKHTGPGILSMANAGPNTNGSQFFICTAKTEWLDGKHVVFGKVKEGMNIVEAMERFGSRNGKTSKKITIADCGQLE
Assay: Ras-Raf (BRAF RBD) disruption / FRET / MOA assay, KRAS G12D
Format: biochemical
Conditions: Ras-Raf disruption/FRET/MOA assay; class symbols; read-out: KRAS G12D FRET data IC50
observed_property: IC50

INSERT INTO results (molecule, assayed_target, reported_measurement) VALUES
  ('C=CC(=O)N1C[C@H](F)[C@](F)(C(=O)N(C)[C@H](C(=O)N[C@H]2Cc3cccc(c3)-c3ccc4c(c3)c(c(-c3cccnc3[C@H](C)OC)n4CC)CC(C)(C)COC(=O)[C@@H]3CCCN(N3)C2=O)C(C)C)C1 (atropisomer, axis not shown) [Example A397]', 'KRAS G12D (Homo sapiens (Human), UniProt P01116+P62937, G12D)', '1 to 10 µM');

Prompt: For CCn1c(-c2cccnc2[C@H](C)OC)c2c3cc(ccc31)-c1cccc(c1)C[C@H](NC(=O)[C@H](C(C)C)N1CCC3(CN(C(=O)C#CC(C)(C)N(C)C)C3)C1=O)C(=O)N1CCC[C@H](N1)C(=O)OCC(C)(C)C2 (atropisomer, axis not shown) [Example A324] , what is its reported IC50?
Response: > 10 µM

Prompt: For CCn1c(-c2cccnc2)c2c3cc(ccc31)-c1cccc(c1)C[C@H](NC(=O)[C@H](C(C)C)N(C)C(=O)[C@H]1CCN(C(=O)C#CCN3CCOCC3)C1)C(=O)N1CCC[C@H](N1)C(=O)OCC(C)(C)C2 [Example A195] , what is its reported IC50?
Response: > 10 µM

Prompt: For CO[C@@H](C)c1ncccc1-c1c2c3cc(ccc3n1CC(F)(F)F)-c1cc(CF)cc(c1)C[C@H](NC(=O)[C@@H](COC1CN(C(=O)C#CC(C)(C)N(C)C)C1)C(C)C)C(=O)N1CCC[C@H](N1)C(=O)OCC(C)(C)C2 (atropisomer, axis not shown) [Example A589] , what is its reported IC50?
Response: > 10 µM

====

Target: KRAS WT (Homo sapiens (Human), UniProt P01116+P62937)
Sequence (P01116-2 other isoform, or with tags, fused parts or gaps): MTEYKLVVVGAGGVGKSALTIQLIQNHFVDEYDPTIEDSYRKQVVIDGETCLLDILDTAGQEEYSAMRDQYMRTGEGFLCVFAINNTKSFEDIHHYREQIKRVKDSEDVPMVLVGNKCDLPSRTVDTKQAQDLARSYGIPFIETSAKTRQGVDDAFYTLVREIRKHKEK
Sequence (P62937 whole entry): as the sequence (P62937 whole entry) above
Experiment: Ras-Raf (BRAF RBD) disruption / FRET / MOA assay, KRAS WT
Type: biochemical
Details: read-out: IC50* KRAS WT FRET data
pIC50: −log10 of the molar value.
compounds and their reported pIC50

INSERT INTO results (compound, observed_property, reported_measurement) VALUES
  ('C=CC(=O)N1CC[C@H](C(=O)N(C)[C@H](C(=O)N[C@H]2Cc3cccc(c3)-c3ccc4c(c3)c(c(-c3cccnc3[C@H](C)OC)n4CC(F)(F)F)CC(C)(C)COC(=O)[C@@H]3CCCN(N3)C2=O)C(C)C)C1 (atropisomer, axis not shown)', 'pIC50', '5.00 to 6.00');

Read the next record carefully.
Prompt: For C=CC(=O)N1CC[C@H](C(=O)N(C)[C@H](C(=O)N[C@H]2Cc3csc(n3)-c3ccc4c(c3)c(c(-c3cccnc3[C@H](C)OC)n4CC)CC(C)(C)COC(=O)[C@@H]3CCCN(N3)C2=O)C(C)C)C1 (atropisomer, axis not shown) , what is its reported pIC50?
Response: 5.00 to 6.00

====

Target: KRAS WT (Homo sapiens (Human), UniProt P01116+P62937)
Assay: Ras-Raf (BRAF RBD) disruption / FRET / MOA assay, KRAS WT
Format: biochemical
Conditions: read-out: IC50* KRAS WT FRET data
Description: The purpose of this biochemical assay is to measure the ability of test compounds to facilitate ternary complex formation between a nucleotide-loaded Ras isoform and cyclophilin A; the resulting ternary complex disrupts binding to a BRAF^RBD construct, inhibiting Ras signaling through a RAF effector. Compound is present in plate wells as a 10-point 3-fold dilution series starting at a final concentration of 30 μM. […]
pIC50: −log10 of the molar value.
observed_property: pIC50

INSERT INTO results (compound, reported_measurement) VALUES
  ('CCn1c(-c2ccccc2CN(C)C)c2c3cc(ccc31)-c1cc(O)cc(c1)C[C@H](NC(=O)[C@H](C(C)C)N(C)C(=O)c1ncc(NC(=O)/C=C/CN(C)C)n1C)C(=O)N1CCC[C@H](N1)C(=O)OCC(C)(C)C2', '5.00 to 6.00');

Read the next record carefully.
Prompt: For C=CC(=O)N(C)[C@H]1CC1N(C)C(=O)N(C)[C@H](C(=O)N[C@H]1Cc2nc(cs2)-c2ccc3c(c2)c(c(-c2cccnc2[C@H](C)OC)n3CC)CC(C)(C)COC(=O)[C@@H]2CCCN(N2)C1=O)C(C)C (some centres unmarked) , what is its reported pIC50?
Response: 6.00 to 7.00

====

Biological target: NRAS Q61K (Homo sapiens (Human), UniProt P01111+P62937, Q61K)
Sequence (P01111 whole entry Q61K): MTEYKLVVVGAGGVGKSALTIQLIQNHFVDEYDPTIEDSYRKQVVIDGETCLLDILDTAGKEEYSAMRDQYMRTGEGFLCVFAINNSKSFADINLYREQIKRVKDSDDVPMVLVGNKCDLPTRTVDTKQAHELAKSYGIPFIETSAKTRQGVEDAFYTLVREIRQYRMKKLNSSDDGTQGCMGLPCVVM
Sequence (P62937 whole entry): as the sequence (P62937 whole entry) above
Experiment: Ras-Raf (BRAF RBD) disruption / FRET / MOA assay, NRAS Q61K
Type: biochemical
Conditions: NRAS Q61K; Ras-Raf disruption/FRET/MOA assay; read-out: IC50* NRAS Q61K FRET data
pIC50: −log10 of the molar value.
compounds and their reported pIC50

INSERT INTO assay_data (compound, reported_measurement) VALUES
  ('C=CC(=O)N1CCC2(CC1)CCN(C(=O)N(C)[C@H](C(=O)N[C@H]1Cc3nc(cs3)-c3ccc4c(c3)c(c(-c3cccnc3[C@H](C)OC)n4CC)CC(C)(C)COC(=O)[C@@H]3CCCN(N3)C1=O)C(C)C)CC2 (atropisomer, axis not shown)', '7.00 to 8.00');

Prompt: For C=CC(=O)N1CC[C@H](C(=O)N(C)[C@H](C(=O)N[C@H]2Cc3cc(O)cc(c3)-c3cc4c(c(-c5ccccc5CCOC)n(CC)c4cn3)CC(C)(C)COC(=O)[C@@H]3CCCN(N3)C2=O)C(C)C)C1 , what is its reported pIC50?
Response: < 5.00

====

molecules and their reported pIC50
Target: NRAS G12C (Homo sapiens (Human), UniProt P01111+P62937, G12C)
Sequence (P01111 whole entry G12C): as the sequence (P01111 whole entry Q61K) above, with G12C, K61Q counted along it
Sequence (P62937 whole entry): as the sequence (P62937 whole entry) above
Assay: Ras-Raf (BRAF RBD) disruption / FRET / MOA assay, NRAS G12C
Format: biochemical
Settings: read-out: IC50* NRAS G12C FRET data
Procedure: The purpose of this biochemical assay is to measure the ability of test compounds to facilitate ternary complex formation between a nucleotide-loaded Ras isoform and cyclophilin A; the resulting ternary complex disrupts binding to a BRAF^RBD construct, inhibiting Ras signaling through a RAF effector. Compound is present in plate wells as a 10-point 3-fold dilution series starting at a final concentration of 30 μM. […]
pIC50: −log10 of the molar value.

# annotated cases, reported pIC50 shown
INSERT INTO measurements (molecule, reported_measurement) VALUES
  ('CCn1c(-c2cccnc2)c2c3cc(ccc31)-c1cccc(c1)C[C@H](NC(=O)[C@H](C(C)C)N(C)C(=O)[C@H]1CCN(C(=O)C#CCN3CCOCC3)C1)C(=O)N1CCC[C@H](N1)C(=O)OCC(C)(C)C2 [Example A195]', '6.00 to 7.00'),
  ('C=CC(=O)N1CCC(C(=O)N(C)[C@H](C(=O)N[C@H]2Cc3cc(O)cc(c3)-c3ccc4c(c3)c(c(-c3ccccc3CCOC)n4CC)CC(C)(C)c3coc(n3)[C@@H]3CCCN(N3)C2=O)C(C)C)C1 (single isomer, unassigned) [Example A231]', '< 5.00'),
  ('CCn1c(-c2cnccc2[C@H](C)OC)c2c3cc(ccc31)-c1cccc(c1)C[C@H](NC(=O)[C@H](C(C)C)N(C)C(=O)[C@H]1CCN(C(=O)C#CCN(C)C)C1)C(=O)N1CCC[C@H](N1)C(=O)OCC(C)(C)C2 [Example A140]', '> 8.00');

Read the next record carefully.
Prompt: For C=CC(=O)N1CC[C@H](C(=O)N(C)[C@H](C(=O)N[C@H]2Cc3csc(n3)-c3ccc4c(c3)c(c(-c3cc(N5CCN(C)CC5)cnc3[C@H](C)OC)n4CC(F)(F)F)CC(C)(C)COC(=O)[C@@H]3CCCN(N3)C2=O)C(C)C)C1 [Example A410] , what is its reported pIC50?
Response: 7.00 to 8.00
